# System: CCRF-CEM
# procedure summary: NCI tumour cell line growth inhibition, 48 h
The source made the active and inactive calls. Rule as the data show it: active = GI50 up to about 1.1 µM and inactive = higher.
Respond using exactly one of the listed classes: active, inactive

input: State the result this test recorded for COc1ccccc1NC(=O)C1=C(C)NC(C)=C(C(=O)Nc2ccccc2OC)C1C1=CC=COC1 .
output: inactive

input: State the result this test recorded for CCCCCCCCCCCCCC1CCC(CC)N1 (configuration not stated) .
output: inactive

input: State the result this test recorded for COc1ccc2c(c1)[C@@H]1c3cc(OC)c(OC)cc3CCN1CCC2 .
output: inactive

input: State the result this test recorded for CCCC(=O)OC1C(CO)OC(n2cc(F)c(=O)[nH]c2=O)C1F (configuration not stated) .
output: inactive

input: State the result this test recorded for [O-][N+]1=NC(c2ccccc2)=C1c1ccccc1 .
output: inactive

input: State the result this test recorded for Nc1nc(Cl)cc(NCC(O)CO)n1 (configuration not stated) .
output: inactive

input: State the result this test recorded for COC1CC(O)C(OC(=O)c2ccccc2)C(C)O1 (configuration not stated) .
output: inactive

input: State the result this test recorded for O=C(O)C12C3CCC(O3)C1(C(=O)O)C1CCC2O1 (configuration not stated) .
output: inactive

input: State the result this test recorded for C[n+]1c2ccccc2c(CNC(CCC(N)=O)C(=O)O)c2ccccc21 (configuration not stated) .
output: active

input: State the result this test recorded for N#CC(=C1CCN(CCCC(=O)c2ccc(F)cc2)CC1)c1ccccc1 .
output: inactive

input: State the result this test recorded for COC(=O)CC1NC(=O)[C@@H]1C(C)O (some centres not stated) .
output: inactive

input: State the result this test recorded for COc1ccc(OC)c2cc(C3(C)SCCCS3)ccc12 .
output: inactive
